Measured values drawn from PubChem BioAssay AID1159580 for this set.

method-notes: chemical genetic growth profiling, strain panel (AID 1159580);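 also: tested at 20 µM; growth read once vehicle control cultures reached saturation at 30 °C; 1 = growth at the plate median or of vehicle wells; lower values mean less growth of the strain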
study-conditions: S. cerevisiae deletion strains, growth OD, locus YKL203C, strain TOR2, hits give low values
Out of some 5,500 compounds screened, about 2,000 (36%) were called active. Another 18% or so got no clear call; they are omitted. The list shows a part of the results.
Property: normalized growth; scope: individual compounds
# output: bare number, no unit

These solved cases illustrate the format of a correct answer.
compound `Cc1ccc(NS(=O)(=O)c2ccc(Cl)cc2)c(N=Cc2cc(Cl)cc(Cl)c2O)c1` , normalized growth observed: 0.273

compound O=[N+]([O-])c1ccc2oc(C(O)c3cccc(Cl)c3)cc2c1 (stereo not given) , normalized growth observed: 1.03

compound `O=C(Nc1ccc(OC(F)(F)F)cc1)OC1CN(C(c2ccccc2)c2ccccc2)C1` , normalized growth observed: 1.02

compound `CCCCN(C)C(=O)c1cc([N+](=O)[O-])cc2c1-c1ccc([N+](=O)[O-])cc1C2=C(C#N)C#N` , normalized growth observed: 1.01

Now for the compound whose normalized growth we want.
compound `Cc1ccc(NS(=O)(=O)c2ccc(-c3csc(C)n3)s2)c(C)c1` , normalized growth observed: 0.92

###

Property: normalized growth; scope: individual compounds
method-notes: chemical genetic growth profiling, strain panel (AID 1159580);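 also: tested at 20 µM; growth read once vehicle control cultures reached saturation at 30 °C; 1 = growth at the plate median or of vehicle wells; lower values mean less growth of the strain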
study-conditions: S. cerevisiae deletion strains, growth OD, locus YLR085C, strain ARP6, hits give low values
Among all 5,500 compounds or so, about 2,000 (36%) were called active. About 18% were inconclusive and are not listed. The list shows a part of the results.
# output: bare number, no unit

compound `Nc1ccc(C(=O)/C(=C\c2cccc([N+](=O)[O-])c2)C(=O)c2ccc(-c3ccccc3)cc2)cc1` , normalized growth observed: 0.877

compound `CC(=O)CC(=O)Nc1ccccc1Cl` , normalized growth observed: 0.967

compound `c1ccc(-c2cc3c(ccc4nonc43)nn2)cc1` , normalized growth observed: 0.878

compound `Cc1onc(-c2c(Cl)cccc2Cl)c1C(=O)Oc1ccc(Cl)c(Cl)c1` , normalized growth observed: 0.991

###

method-notes: chemical genetic growth profiling, strain panel (AID 1159580);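 also: tested at 20 µM; growth read once vehicle control cultures reached saturation at 30 °C; 1 = growth at the plate median or of vehicle wells; lower values mean less growth of the strain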
study-conditions: S. cerevisiae deletion strains, growth OD, locus YDR297W, strain sur2
Screen size: about 5,500 compounds; about 2,000 (36%) were called active. Not shown: some 18% with an inconclusive outcome. Rule as the data show it: active = normalized growth mostly below about 0.91 (no sharp cut-off); inconclusive = no clear call, values can overlap the other calls; inactive = mostly above about 0.92. Some of the results follow.
Assign a class; possible classes are YES = active, NO = inactive

These solved cases illustrate the format of a correct answer.
[ask] Short answer needed: outcome of this test for `CCNC(=O)CC[C@H](N)C(=O)O` ?
[reply] NO

[ask] Short answer needed: outcome of this test for `CCCCNc1ccc(C(=O)OCCN(C)C)cc1` ?
[reply] NO

[ask] Short answer needed: outcome of this test for `O=C1NC(=O)C(=O)C(=O)N1` ?
[reply] NO

[ask] Short answer needed: outcome of this test for `CCCCOC(=O)c1ccccc1C(=O)OCCCC` ?
[reply] NO

[ask] Short answer needed: outcome of this test for `COc1ccc(CCN2CCC(Nc3nc4ccccc4n3Cc3ccc(F)cc3)CC2)cc1` ?
[reply] NO

[ask] Short answer needed: outcome of this test for `N[C@@H](CC(=O)N1CCn2c(nnc2C(F)(F)F)C1)Cc1cc(F)c(F)cc1F` ?
[reply] NO

Continuing:
[ask] Short answer needed: outcome of this test for `CCCCC(=O)Oc1ccccc1C(=O)O` ?
[reply] NO

[ask] Short answer needed: outcome of this test for `CC(=O)N[C@@H](CS)C(=O)O` ?
[reply] NO

[ask] Short answer needed: outcome of this test for `CCOC(=O)Nc1nc2ccccc2[nH]1` ?
[reply] NO

[ask] Short answer needed: outcome of this test for `O=C1OC2(c3ccc(O)cc3Oc3cc(O)ccc32)c2ccccc21` ?
[reply] NO
